The origin of these recorded values is patent US11292778B2.

test summary: Photobleaching under continuous-wave irradiation at 532 nm
Type: physicochemical
experimental parameters: 532 nm irradiation, dichloromethane
measured attribute: relative rate, krel (photobleaching)

INSERT INTO assay_data (compound, measured_attribute, experimental_value) VALUES
  ('CN(C)c1ccc2c(c1)OC(c1ccccc1)=C/C2=C\c1cc(-c2ccccc2)[o+]c2cc(N(C)C)ccc12.O=C([O-])C(F)(F)F [Dye 6]', 'relative rate, krel (photobleaching)', '4 ± 1'),
  ('CN(C)c1ccc2c(c1)OC(c1ccccc1)=C/C2=C\C=C\c1cc(-c2ccccc2)[o+]c2cc(N(C)C)ccc12.[O-][Cl+3]([O-])([O-])[O-] [Dye 5]', 'relative rate, krel (photobleaching)', '1.00 ± .06'),
  ('CN(C)c1ccc2c(c1)OC(c1ccccc1)=C\C2=C/C=C/C=C/c1cc(-c2ccccc2)[o+]c2cc(N(C)C)ccc12.[O-][Cl+3]([O-])([O-])[O-] [Dye 4]', 'relative rate, krel (photobleaching)', '4.0 ± 0.2'),
  ('CN(C)c1ccc2c(c1)OC(c1ccccc1)=C/C2=C\C=C1/CCCC(/C=C/c2cc(-c3ccccc3)[o+]c3cc(N(C)C)ccc23)=C1Cl.[O-][Cl+3]([O-])([O-])[O-] [Dye 3]', 'relative rate, krel (photobleaching)', '40. ± 6.');

* * *

test summary: Photobleaching under continuous-wave irradiation at 532 nm
Format: physicochemical
experimental parameters: dichloromethane
Procedure: Photostabilities of the Flay series were measured under continuous-wave irradiation (532 nm, 0.53 fluence).
Each entry below carries its recorded ε at 532 nm.
measured attribute: ε at 532 nm (M^−1cm^−1 × 10^4)

INSERT INTO measurements (structure_smiles, experimental_value) VALUES
  ('CN(C)c1ccc2c(c1)OC(c1ccccc1)=C/C2=C\c1cc(-c2ccccc2)[o+]c2cc(N(C)C)ccc12.O=C([O-])C(F)(F)F', 0.23),
  ('CN(C)c1ccc2c(c1)OC(c1ccccc1)=C/C2=C\C=C1/CCCC(/C=C/c2cc(-c3ccccc3)[o+]c3cc(N(C)C)ccc23)=C1Cl.[O-][Cl+3]([O-])([O-])[O-]', 1.4),
  ('CN(C)c1ccc2c(c1)OC(c1ccccc1)=C\C2=C/C=C/C=C/c1cc(-c2ccccc2)[o+]c2cc(N(C)C)ccc12.[O-][Cl+3]([O-])([O-])[O-]', 1.29),
  ('CN(C)c1ccc2c(c1)OC(c1ccccc1)=C/C2=C\C=C\c1cc(-c2ccccc2)[o+]c2cc(N(C)C)ccc12.[O-][Cl+3]([O-])([O-])[O-]', 2.0);

* * *

test summary: Emission spectra of the dyes in DCM
Assay type: physicochemical
experimental parameters: Example 4 dyes, dichloromethane, excitation 806-900 nm per dye
Quick list: Emission (CH2Cl2) per entry.
measured attribute: Emission (CH2Cl2) (nm)

INSERT INTO measurements (structure_smiles, measured_attribute, experimental_value) VALUES
  ('ClC1=C(/C=C/c2cc(-c3ccccc3)[o+]c3c2ccc2ccccc23)CCC/C1=C\C=C1/C=C(c2ccccc2)Oc2c1ccc1ccccc21.F[B-](F)(F)F', 'Emission (CH2Cl2)', 1024),
  ('ClC1=C(/C=C/c2cc(-c3ccccc3)[o+]c3ccc4ccccc4c23)CCC/C1=C\C=C1/C=C(c2ccccc2)Oc2ccc3ccccc3c21.F[B-](F)(F)F', 'Emission (CH2Cl2)', 1055),
  ('CN(C)c1ccc2c(c1)OC(c1ccccc1)=C/C2=C\C=C1/CCCC(/C=C/c2cc(-c3ccccc3)[o+]c3cc(N(C)C)ccc23)=C1Cl.F[B-](F)(F)F', 'Emission (CH2Cl2)', 1054),
  ('CCN(CC)c1ccc2c(c1)OC(c1ccccc1)=C/C2=C\C=C1/CCCC(/C=C/c2cc(-c3ccccc3)[o+]c3cc(N(CC)CC)ccc23)=C1Cl.F[B-](F)(F)F', 'Emission (CH2Cl2)', 1062),
  ('ClC1=C(/C=C/c2cc(-c3ccccc3)[o+]c3c4c5c(cc23)CCCN5CCC4)CCC/C1=C\C=C1/C=C(c2ccccc2)Oc2c1cc1c3c2CCCN3CCC1.F[B-](F)(F)F', 'Emission (CH2Cl2)', 1089),
  ('ClC1=C(/C=C/c2cc(-c3ccccc3)[o+]c3cc(N4CCC4)ccc23)CCC/C1=C\C=C1/C=C(c2ccccc2)Oc2cc(N3CCC3)ccc21.F[B-](F)(F)F', 'Emission (CH2Cl2)', 1059),
  ('C1=C(c2ccccc2)Oc2c(cc3c4c2CCCN4CCC3)/C1=C/C=C/C=C/c1cc(-c2ccccc2)[o+]c2c3c4c(cc12)CCCN4CCC3.F[B-](F)(F)F', 'Emission (CH2Cl2)', 934),
  ('ClC1=C(/C=C/c2cc(-c3ccccc3)[o+]c3cc(N(c4ccccc4)c4ccccc4)ccc23)CCC/C1=C\C=C1/C=C(c2ccccc2)Oc2cc(N(c3ccccc3)c3ccccc3)ccc21.F[B-](F)(F)F', 'Emission (CH2Cl2)', 1079);
